Please provide measured fXIa selectivity index K i(protease)/Ki(plasmin) for the entries that follow.
Biological target: factor XIa (fXIa) (Homo sapiens)
Sequence (P03951 19-387): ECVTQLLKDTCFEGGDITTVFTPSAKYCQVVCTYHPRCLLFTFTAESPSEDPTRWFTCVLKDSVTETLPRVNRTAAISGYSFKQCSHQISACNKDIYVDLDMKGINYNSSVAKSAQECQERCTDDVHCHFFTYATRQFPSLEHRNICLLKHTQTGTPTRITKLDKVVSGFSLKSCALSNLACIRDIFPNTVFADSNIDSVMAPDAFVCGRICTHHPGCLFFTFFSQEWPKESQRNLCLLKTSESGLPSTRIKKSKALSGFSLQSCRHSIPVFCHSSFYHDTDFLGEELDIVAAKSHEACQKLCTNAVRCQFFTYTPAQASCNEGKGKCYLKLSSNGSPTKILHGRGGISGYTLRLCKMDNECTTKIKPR
Sequence (P03951 388-625): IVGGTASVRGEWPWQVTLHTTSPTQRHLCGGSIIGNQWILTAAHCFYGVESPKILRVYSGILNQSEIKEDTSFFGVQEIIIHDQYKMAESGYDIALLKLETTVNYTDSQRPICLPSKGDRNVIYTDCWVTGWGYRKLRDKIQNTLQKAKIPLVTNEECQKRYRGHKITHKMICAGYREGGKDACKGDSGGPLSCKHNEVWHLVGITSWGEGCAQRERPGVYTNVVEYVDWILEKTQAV
Assay: Selectivity: inhibition of factor XIa
Format: biochemical
Settings: in brackets
Method: For these three proteases a selectivity index (SI=K i(protease)/K i(plasmin)) was calculated, which is provided in brackets after the inhibition constants (Table 3). The measurements with the related trypsin‐like serine proteases trypsin, plasma kallikrein, factor XIa, thrombin, activated protein Ca and factor Xa used in selectivity studies were performed as described previously.[11, 12]

Cc1ccc2cc1NC(=O)C(CCc1ccccc1)NC(=O)CCCNC(=O)Cc1ccc(cc1)NC(=O)C(NC(=O)C1CCC(CN)CC1)Cc1ccc-2cc1 (stereo not shown) [inhibitor 31] : 117
Cc1ccc2cc1NC(=O)CNC(=O)CCCNC(=O)Cc1ccc(cc1)NC(=O)[C@@H](NC(=O)[C@H]1CC[C@H](CN)CC1)Cc1ccc-2cc1 [inhibitor 28] : 49
Cc1ccc2cc1NC(=O)CNC(=O)CCCNC(=O)Cc1cccc(c1)NC(=O)[C@@H](NC(=O)[C@H]1CC[C@H](CN)CC1)Cc1ccc-2cc1 [inhibitor 40] : 13

API: the following record is the query input.
Query block: Need fXIa selectivity index K i(protease)/Ki(plasmin), item CC(C)NC(=O)c1ccc2cc1NC(=O)CNC(=O)CCCNC(=O)Cc1ccc(cc1)NC(=O)C(NC(=O)C1CCC(CN)CC1)Cc1ccc-2cc1 (stereo not shown) [inhibitor 33]
Result block: 18

###

Biological target: human plasmin (Homo sapiens)
Construct: purchased Calbiochem
Sequence (P00747 581-810): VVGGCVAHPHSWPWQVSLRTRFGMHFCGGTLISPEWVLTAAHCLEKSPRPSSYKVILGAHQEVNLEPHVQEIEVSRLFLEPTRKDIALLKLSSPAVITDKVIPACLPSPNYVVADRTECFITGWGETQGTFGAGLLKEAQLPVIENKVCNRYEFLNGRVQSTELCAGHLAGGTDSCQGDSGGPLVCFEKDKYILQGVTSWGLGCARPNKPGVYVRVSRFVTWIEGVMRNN
Sequence (P00747 97-580): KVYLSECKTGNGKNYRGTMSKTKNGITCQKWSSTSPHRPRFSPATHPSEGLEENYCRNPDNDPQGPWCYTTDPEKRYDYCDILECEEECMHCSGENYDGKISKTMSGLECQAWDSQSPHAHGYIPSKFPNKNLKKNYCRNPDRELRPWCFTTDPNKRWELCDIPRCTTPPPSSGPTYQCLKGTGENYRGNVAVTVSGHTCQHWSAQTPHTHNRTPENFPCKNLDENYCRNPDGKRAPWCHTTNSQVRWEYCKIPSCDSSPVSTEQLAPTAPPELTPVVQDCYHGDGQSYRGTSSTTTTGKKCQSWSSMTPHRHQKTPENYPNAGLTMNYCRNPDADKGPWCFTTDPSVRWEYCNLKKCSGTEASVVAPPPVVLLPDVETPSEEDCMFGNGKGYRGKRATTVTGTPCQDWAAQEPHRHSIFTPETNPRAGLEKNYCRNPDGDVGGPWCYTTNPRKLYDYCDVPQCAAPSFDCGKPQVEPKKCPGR
Assay: Inhibition of human plasmin, fluorogenic substrate Mes-DArg-Phe-Arg-AMC
Type: biochemical
Settings: K i (μM), inhibition of plasmin, series one, 4-aminophenylalanine in P1'; steady-state velocities, equation 1
Positions of bridges follow the written chain, without caps; N, C: chain ends. Non-standard residues stand in square brackets, D forms with d. Residues, ends and D or L forms follow the SMILES beside them. Phe(4-NH2) = Nc1ccc(C[C@H](N)C(=O)O)cc1; Trx = NC[C@H]1CC[C@H](C(=O)O)CC1; βAla = NCCC(=O)O
Please provide measured Ki for the entries that follow.
One number for each entry, in µM.

As a guide, the following entries are already answered.
NC[C@H]1CC[C@H](C(=O)N[C@H]2Cc3ccc(cc3)NC(=O)CCCCCNC(=O)Cc3cccc(c3)NC2=O)CC1 [inhibitor 5] : 5.81
CC(C)C[C@@H]1NC(=O)CCNC(=O)Cc2ccc(cc2)NC(=O)[C@@H](NC(=O)[C@H]2CC[C@H](CN)CC2)Cc2ccc(cc2)NC1=O [inhibitor 10] : 3.33

Look at each compound and report its Ki.
1. N=C(N)NCCC[C@@H]1NC(=O)[C@@H](NC(=O)[C@H]2CC[C@H](CN)CC2)Cc2ccc(cc2)NC(=O)CCNC1=O [inhibitor 4] (H-[Trx][Phe(4-NH2)]R[βAla]; lactam 2-C)
2. NC[C@H]1CC[C@H](C(=O)N[C@H]2Cc3ccc(cc3)NC(=O)CCNC(=O)CNC(=O)Cc3ccc(cc3)NC2=O)CC1 [inhibitor 8]

Result block:
[110, 5.53]

###

Target: human plasmin (Homo sapiens)
Construct: purchased Calbiochem
Test: Inhibition of human plasmin, fluorogenic substrate Mes-DArg-Phe-Arg-AMC
Type: biochemical
Conditions: K i (nM), inhibition of plasmin, series two, substituted Bpa in P1', and acyclic analogues; steady-state velocities, equation 1
propertyLabel: Ki (nM)
One number for each entry, in nM.

As a guide, the following entries are already answered.
Cc1ccc2cc1NC(=O)C1CCC(CC1)CNC(=O)Cc1ccc(cc1)NC(=O)C(NC(=O)C1CCC(CN)CC1)Cc1ccc-2cc1 (stereo not drawn) : 109
Cc1ccc2cc1NC(=O)CNC(=O)CCCNC(=O)Cc1cccc(c1)NC(=O)[C@@H](NC(=O)[C@H]1CC[C@H](CN)CC1)Cc1ccc-2cc1 : 9.47

Query block: Need Ki, item "Cc1ccc2cc1NC(=O)CNC(=O)CCNC(=O)Cc1cccc(c1)NC(=O)[C@@H](NC(=O)[C@H]1CC[C@H](CN)CC1)Cc1ccc-2cc1"
Result block: 20.6

meta.source: paper PMC11617653
